B1: scFv; the commonest letter at each place (parent)
chain 1: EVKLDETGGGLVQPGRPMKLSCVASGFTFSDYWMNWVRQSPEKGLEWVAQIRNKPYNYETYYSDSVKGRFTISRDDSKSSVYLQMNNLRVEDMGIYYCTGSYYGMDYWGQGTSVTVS
chain 2: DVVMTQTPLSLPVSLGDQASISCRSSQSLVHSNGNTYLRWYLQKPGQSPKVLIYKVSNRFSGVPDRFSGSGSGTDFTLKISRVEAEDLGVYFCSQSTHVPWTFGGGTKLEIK

# Variants of: B1
# TEST: Kd (Tite-Seq)
# MEASUREMENT_CONDITIONS: with fluorescein; format: scFv 4-4-20, heavy + light
# Kd values compiled below

Sample records with Kd:
MUTATION_ANNOTATION: chain 1 Y102R M105A
Kd: 8.56 µM

MUTATION_ANNOTATION: chain 1 N35F V37A
Kd: ≥ 10 µM

MUTATION_ANNOTATION: chain 1 Y103R
Kd: 0.00444 µM

MUTATION_ANNOTATION: chain 1 G100Y M105R
Kd: ≥ 10 µM

MUTATION_ANNOTATION: chain 1 V37M
Kd: 0.000333 µM

MUTATION_ANNOTATION: chain 1 M105D D106I
Kd: ≥ 10 µM

MUTATION_ANNOTATION: chain 1 T28S W33F
Kd: 1.02 µM

MUTATION_ANNOTATION: chain 1 N35R W36R
Kd: ≥ 10 µM

## Input # Kd lookup, item chain 1 D106V
## Output ≥ 10 µM

## Input Endpoint output: Kd of chain 1 W108L G109R . Value?
## Output ≥ 10 µM

## Input Any idea what Kd was measured for chain 1 T28E M34S ?
## Output 0.0592 µM

## Input Which Kd is reported for this variant? chain 1 S30H D31L
## Output ≥ 10 µM

## Input Recorded Kd for chain 1 M105G D106Q , please?
## Output ≥ 10 µM

## Input Kd lookup needed for chain 1 Y102E W108I , thanks.
## Output 0.000846 µM

## Input Which Kd reading was recorded for the variant chain 1 G104L M105G Y107F ?
## Output ≥ 10 µM

## Input Which Kd value belongs to chain 1 Y102D M105I ?
## Output ≥ 10 µM
